# studyTarget: VEGF165 (Homo sapiens, UniProt P15692-4 P15692-4:27-191)
# Sequence (P15692 other isoform, or with tags, fused parts or gaps): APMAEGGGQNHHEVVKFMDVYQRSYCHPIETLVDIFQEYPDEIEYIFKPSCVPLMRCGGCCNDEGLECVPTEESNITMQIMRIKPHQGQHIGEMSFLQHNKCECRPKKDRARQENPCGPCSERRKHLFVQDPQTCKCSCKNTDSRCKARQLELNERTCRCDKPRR
# assayProcedure: filter; 37 C
# runConditions: tags: carrier-free, Sf 21 insect cell expressed, R & D Systems; chain copies: 2 (inferred)
# true = Kd below 20 pM (exclusive); false = Kd at/above 20 pM

Example results:
binder | group
VP40.24 (ssRNA, 2'-F pyrimidines) RNA: GGGAGGACGAUGCGGGAUGCUGAGUGAGGAAGUCUGAUUGUUGCAGUAUUGGCGUCAGACGACUCGCCCGA | false
VT30.12 (ssRNA, 2'-F pyrimidines) RNA: GGGAGGACGAUGCGGUCUUUGGGUUUUUGCCAACGGUUUUCGCUCAGACGACUCGCCCGA | true

I'd appreciate it if you could check whether VT30.8 (ssRNA, 2'-F pyrimidines) RNA: GGGAGGACGAUGCGGUUGAUCGAUUUUCCUGGCGUCCUUAUGGGUCAGACGACUCGCCCGA has Kd smaller than 20 pM.
false

# TODO verify Kd < 20 pM strictly for this binder: VP30.11 (ssRNA, 2'-F pyrimidines) RNA: GGGAGGACGAUGCGGUCAGGAACGGAAUUUUUGGAGACACGCCCUCAGACGACUCGCCCGA
false

Decide: Kd of VP30.51 (ssRNA, 2'-F pyrimidines) RNA: GGGAGGACGAUGCGGAGUUUUGGAAGAAUUGGAUGUUCCGAUCGUCAGACGACUCGCCCGA strictly below 20 pM?
false

Hi there! Is Kd for VT30.13 (ssRNA, 2'-F pyrimidines) RNA: GGGAGGACGAUGCGGCAGGAUUUUGGAAGAAUUGGAUAUUGGCCGCAGACGACUCGCCCGA below 20 pM, do you know?
true

# strict comparison: is reported Kd < 20 pM? input = VT30.7 (ssRNA, 2'-F pyrimidines) RNA: GGGAGGACGAUGCGGUAACCAGUGGAAGAAUUGGCUGCUAUCCUCAGACGACUCGCCCGA
true

Consider VP30.65 (ssRNA, 2'-F pyrimidines) RNA: GGGAGGACGAUGCGGAAAACGCUUUUCUUGGCCCCCUCGUUGCGCCAGACGACUCGCCCGA . Does its Kd lie strictly below 20 pM?
false

Regarding VP40.47 (ssRNA, 2'-F pyrimidines) RNA: GGGAGGACGAUGCGGCAGUUAAUUAAUUUGAGUUGUGAUGUGUGUCGUUAUGGGCCAGACGACUCGCCCGA , kindly confirm whether its Kd is beneath 20 pM.
false

Kd under 20 pM? Item: VT30.41 (ssRNA, 2'-F pyrimidines) RNA: GGGAGGACGAUGCGGCAGGGUGAAUGCCAAUGUACUUUUCGCGUCAGACGACUCGCCCGA
false

Given VP40.44 (ssRNA, 2'-F pyrimidines) RNA: GGGAGGACGAUGCGGAUCUGUUGAACUGGGUUUUGCCGACGGUUACGCUUUUGCUCAGACGACUCGCCCGA , is recorded Kd strictly lower than 20 pM?
false
